- SYSTEM_TESTED: P. hybrida EPSPS variant glypR (Gly-Ala, Pro-Ser) (Petunia hybrida, UniProt P11043, G173A/P178S)
- Sequence (P11043 73-516 G173A/P178S): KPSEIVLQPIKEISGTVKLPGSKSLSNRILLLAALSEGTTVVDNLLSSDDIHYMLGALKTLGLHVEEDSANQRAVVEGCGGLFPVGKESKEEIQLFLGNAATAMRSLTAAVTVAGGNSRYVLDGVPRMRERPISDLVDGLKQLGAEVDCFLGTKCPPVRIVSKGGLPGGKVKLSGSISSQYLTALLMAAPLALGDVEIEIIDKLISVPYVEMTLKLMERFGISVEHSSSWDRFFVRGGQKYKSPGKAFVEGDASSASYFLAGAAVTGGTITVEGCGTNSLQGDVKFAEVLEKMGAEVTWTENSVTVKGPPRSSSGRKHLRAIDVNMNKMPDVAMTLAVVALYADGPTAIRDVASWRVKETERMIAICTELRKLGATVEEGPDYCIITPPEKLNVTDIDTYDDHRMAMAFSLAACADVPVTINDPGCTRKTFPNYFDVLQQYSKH
- ASSAY_NAME: kinetic characterization of EPSP synthase (Table 4)
QUANTITY: Ki (mM)
Quick note: give the figure in mM, leave out the unit.

[in] Query (molecule): O=C(O)CNCP(=O)(O)O [glyphosate, N-phosphonomethylglycine] ; field requested: Ki
[out] 8.5

----------
- SYSTEM_TESTED: P. hybrida EPSPS variant glypR (Pro-Ser) (Petunia hybrida, UniProt P11043, P178S)
- Sequence (P11043 73-516 P178S): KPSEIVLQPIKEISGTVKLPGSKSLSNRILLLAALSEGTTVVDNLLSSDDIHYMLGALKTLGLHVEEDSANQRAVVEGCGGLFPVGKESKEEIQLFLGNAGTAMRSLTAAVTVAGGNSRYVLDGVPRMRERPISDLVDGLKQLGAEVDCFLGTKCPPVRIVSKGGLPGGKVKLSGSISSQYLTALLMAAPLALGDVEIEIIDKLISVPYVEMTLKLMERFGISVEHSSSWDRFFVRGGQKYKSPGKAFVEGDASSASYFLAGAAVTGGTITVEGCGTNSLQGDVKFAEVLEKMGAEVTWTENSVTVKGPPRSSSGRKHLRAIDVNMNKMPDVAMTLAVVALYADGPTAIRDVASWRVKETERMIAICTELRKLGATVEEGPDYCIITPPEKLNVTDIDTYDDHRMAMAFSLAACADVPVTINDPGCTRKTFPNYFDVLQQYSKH
- ASSAY_NAME: kinetic characterization of EPSP synthase (Table 4)
QUANTITY: pKi
// returns pKi (minus log10 of molar concentration), number only

[in] Find the measured pKi: item O=C(O)CNCP(=O)(O)O [glyphosate, N-phosphonomethylglycine] , target or system P. hybrida EPSPS variant glypR (Pro-Ser) (Petunia hybrida, UniProt P11043, P178S).
[out] 5.52

----------
- SYSTEM_TESTED: Z. mays glypS (wt) EPSPS (Zea mays, glyphosate sensitive, wild type) (Zea mays)
- Sequence (A0A1D6NVZ6 63-506 limits assumed): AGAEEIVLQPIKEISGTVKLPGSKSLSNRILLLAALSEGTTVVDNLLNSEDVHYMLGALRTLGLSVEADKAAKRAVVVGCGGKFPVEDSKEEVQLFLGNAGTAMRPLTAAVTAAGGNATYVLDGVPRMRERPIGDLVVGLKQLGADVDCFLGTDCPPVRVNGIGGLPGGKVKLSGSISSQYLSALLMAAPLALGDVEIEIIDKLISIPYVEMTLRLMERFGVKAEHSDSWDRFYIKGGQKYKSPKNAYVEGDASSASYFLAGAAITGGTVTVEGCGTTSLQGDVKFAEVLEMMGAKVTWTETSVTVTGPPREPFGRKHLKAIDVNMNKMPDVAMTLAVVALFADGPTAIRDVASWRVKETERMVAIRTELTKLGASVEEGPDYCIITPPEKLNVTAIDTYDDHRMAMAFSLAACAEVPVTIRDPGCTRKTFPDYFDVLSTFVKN
QUANTITY: pKi
// returns pKi (minus log10 of molar concentration), number only

[in] Query (compound): O=C(O)CNCP(=O)(O)O [glyphosate, N-phosphonomethylglycine] ; field requested: pKi
[out] 6.70

----------
- SYSTEM_TESTED: Z. mays EPSPS variant glypR (Thr-Ile, Pro-Ser) (Zea mays, UniProt A0A1D6NVZ6, P168S/T164I)
- Sequence (A0A1D6NVZ6 63-506 T164I/P168S limits assumed): as the sequence (A0A1D6NVZ6 63-506 limits assumed) above, with T102I, P106S counted along it
- ASSAY_NAME: kinetic characterization of EPSP synthase (Table 4)
- CONDITION_DESCRIPTION: read-out: apparent Ki for glyphosate; with respect to PEP, saturating S3P
- Experimental: Final sample volumes are approximately 0.5 ml.
QUANTITY: pKi
// returns pKi (minus log10 of molar concentration), number only

[in] Query (compound): O=C(O)CNCP(=O)(O)O [glyphosate, N-phosphonomethylglycine] ; field requested: pKi
[out] 4.22

Recorded values, source patent US6803501B2.
